tested on: BCWM.1; test: CellTiter-Glo cell viability assay; assay type: cell-based; conditions: BCWM1, 72 h
Entries and their EC50 values follow.
A number alone suffices; assume nM.

As a guide, the following entries are already answered.
INSERT INTO measurements (structure_string, target_of_assay, value_kind, display_unit, test_result) VALUES
  ('Cc1cn(-c2cc(NC(=O)c3ccc(C)c(NC(=O)c4cncc(-c5cccs5)c4)c3)cc(C(F)(F)F)c2)cn1', 'BCWM.1', 'EC50', 'nM', 141),
  ('Cc1ccc(C(=O)Nc2cc(N3CCOCC3)cc(N3CCOCC3)c2)cc1NC(=O)c1cncc(-c2cccs2)c1', 'BCWM.1', 'EC50', 'nM', 180),
  ('CCN1CCN(Cc2ccc(C(=O)Nc3ccc(C)c(NC(=O)c4cncc(-c5cccs5)c4)c3)cc2C(F)(F)F)CC1', 'BCWM.1', 'EC50', 'nM', 38);

Consider now this further molecule.
INPUT: So what's the measured EC50 for this one? CCN1CCN(c2ccc(NC(=O)c3ccc(C)c(NC(=O)c4cncc(-c5cccs5)c4)c3)cc2C(F)(F)F)CC1
OUTPUT: 365

* * *

BTK (Homo sapiens (Human), UniProt Q06187) IC50 data
Sequence (Q06187 whole entry): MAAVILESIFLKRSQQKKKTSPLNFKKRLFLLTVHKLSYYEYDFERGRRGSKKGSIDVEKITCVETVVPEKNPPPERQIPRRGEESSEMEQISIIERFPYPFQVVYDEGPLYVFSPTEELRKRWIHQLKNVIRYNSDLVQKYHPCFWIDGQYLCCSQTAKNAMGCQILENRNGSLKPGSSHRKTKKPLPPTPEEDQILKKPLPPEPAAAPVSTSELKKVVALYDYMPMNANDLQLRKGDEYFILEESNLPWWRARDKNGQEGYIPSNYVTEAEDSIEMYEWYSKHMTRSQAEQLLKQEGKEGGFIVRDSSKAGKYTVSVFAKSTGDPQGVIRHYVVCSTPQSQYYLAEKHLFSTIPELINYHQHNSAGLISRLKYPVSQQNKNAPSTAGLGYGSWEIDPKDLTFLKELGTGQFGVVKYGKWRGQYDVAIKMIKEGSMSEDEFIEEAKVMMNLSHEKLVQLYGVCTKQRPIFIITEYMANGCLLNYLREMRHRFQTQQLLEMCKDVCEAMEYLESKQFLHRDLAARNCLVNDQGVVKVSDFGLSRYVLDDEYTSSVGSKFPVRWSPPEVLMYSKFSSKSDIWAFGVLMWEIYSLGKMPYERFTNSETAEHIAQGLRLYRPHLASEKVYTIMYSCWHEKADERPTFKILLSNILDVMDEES
A number alone suffices; assume nM.

INSERT INTO results (structure_string, display_unit, test_result) VALUES
  ('CCN1CCN(Cc2ccc(C(=O)Nc3ccc(C)c(NC(=O)c4cncc(-c5cccs5)c4)c3)cc2C(F)(F)F)CC1', 'nM', 22.9),
  ('CCN1CCN(c2ccc(NC(=O)c3ccc(C)c(NC(=O)c4cncc(-c5cccs5)c4)c3)cc2C(F)(F)F)CC1', 'nM', 3910),
  ('Cc1ccc(C(=O)Nc2cccc(C(C)(C)C#N)c2)cc1NC(=O)c1cncc(-c2cccs2)c1', 'nM', 1150);

Consider now this further molecule.
INPUT: Reported IC50 for BTK (Homo sapiens (Human), UniProt Q06187), given Cc1ccc(C(=O)Nc2cc(N3CCOCC3)cc(N3CCOCC3)c2)cc1NC(=O)c1cncc(-c2cccs2)c1 ?
OUTPUT: 3420

* * *

tested on: OCI-Ly19; experiment: CellTiter-Glo cell viability assay; type: cell-based; details: Homo sapiens, 72 hours
value-kind: pEC50
In textbook form, pEC50 equals minus log to base ten of the concentration in mol/L.

As a guide, the following entries are already answered.
INSERT INTO measurements (compound, test_result) VALUES
  ('CCN1CCN(Cc2ccc(C(=O)Nc3ccc(C)c(NC(=O)c4cncc(-c5cccs5)c4)c3)cc2C(F)(F)F)CC1 [I-1]', 6.26),
  ('Cc1ccc(C(=O)Nc2cc(N3CCOCC3)cc(N3CCOCC3)c2)cc1NC(=O)c1cncc(-c2cccs2)c1 [I-7]', 5.53),
  ('Cc1cn(-c2cc(NC(=O)c3ccc(C)c(NC(=O)c4cncc(-c5cccs5)c4)c3)cc(C(F)(F)F)c2)cn1 [I-3]', 6.29);

Consider now this further compound.
INPUT: So what's the measured pEC50 for this one? CCN1CCN(c2ccc(NC(=O)c3ccc(C)c(NC(=O)c4cncc(-c5cccs5)c4)c3)cc2C(F)(F)F)CC1 [I-5]
OUTPUT: 5.81

* * *

molecular target: BTK (Homo sapiens (Human)); assay: Invitrogen Select Screening kinase assay; assay type: biochemical; details: in vitro
Entries and their pIC50 values follow.
In textbook form, pIC50 equals minus log to base ten of the concentration in mol/L.

INSERT INTO assay_data (structure_string, value_kind, test_result) VALUES
  ('CCN1CCN(Cc2ccc(NC(=O)c3ccc(C)c(NC(=O)c4cncc(-c5cnoc5)c4)c3)cc2C(F)(F)F)CC1', 'pIC50', 7.16),
  ('Cc1cn(-c2cc(NC(=O)c3ccc(C)c(NC(=O)c4cncc(-c5cccs5)c4)c3)cc(C(F)(F)F)c2)cn1', 'pIC50', 6.71),
  ('Cc1ccc(C(=O)Nc2cc(N3CCN(C)CC3)cc(C(F)(F)F)c2)cc1NC(=O)c1cncc(-c2cccs2)c1', 'pIC50', 6.34);

INPUT: So what's the measured pIC50 for this one? CCN1CCN(Cc2ccc(NC(=O)c3ccc(C)c(NC(=O)c4cncc(-c5cnn(C)c5)c4)c3)cc2C(F)(F)F)CC1
OUTPUT: 7.60
